# Tested on: H1 or H9 human embryonic stem cells
# assayDetails: Activin A bioassay: differentiation of human embryonic stem cells to definitive endoderm, cell number and SOX17 intensity by high content analysis (96-well, four days);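 also: total fluorescence of the cell multiplied by cell area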
# Assay type: cell-based
# conditionNotes: supernatant concentration 1x, assay dilution 1:20
endpoint: Sox 17 Intensity average
Numbers only.

- molecule: "ACTN76: activin A variant peptide, SEQ ID 77 (protein) GLECDGKVNICCKKQLFGQTKDIGWNDWIIAPSGYHGGGCSGECPSHIAGTSGSSLSFHSTVINHYRMRGHSPNANLKSCCSPTKLRPMSMLYYDDGQNIIKKDIQGMKVEECGCT"
  endpoint: "Sox 17 Intensity average"
  assayValue: "9.19E+05"
- molecule: "ACTN5: activin A variant peptide, SEQ ID 6 (protein) GLECDGKVNYCCKKQNFVSFKDIGWNDWIIAPSGYHANECSGKCPSHIAGTSGSSLSFHSTVINHYRMRGHSPFSNLGACCIPTKLRPMSMLYYDDGQNIIKKDIQNMIVEECGCS"
  endpoint: "Sox 17 Intensity average"
  assayValue: "1.111E+07"

For the next question, use this molecule.
Lab book: Sox 17 Intensity average of OriGene wildtype: wildtype human activin A expressed from commercial OriGene construct (Cat. No. TC118774, pCMV6-XL4); supernatant used as positive control (protein, UniProt P08476 311-426, looked up, Inhibin beta A chain activin A homodimer) Inhibin beta A chain: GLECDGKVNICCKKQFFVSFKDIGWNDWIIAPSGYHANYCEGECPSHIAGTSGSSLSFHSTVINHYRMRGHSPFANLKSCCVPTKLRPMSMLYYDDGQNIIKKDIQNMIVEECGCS noted as 1.819E+07

Numbers sourced from patent US20110091971A1.
